assay: Volume of distribution in Sprague-Dawley rat at 5 mg/kg, iv; type: ADME, organism-based; parameters: dose 5 mg/kg, route intravenous; conditions: in vivo

molecularString	Vd, L/kg
OC[C@@H]1[C@@H](O)[C@H](O)[C@@H](O)CN1CCCCCCOc1cc(F)ccc1F	3.1

----------
experiment: Plasma half life in Sprague-Dawley rat at 5 mg/kg, iv; type: ADME, organism-based; set-up: dose 5 mg/kg, route intravenous
reportedMetric: half-life

molecularString	endpointValue
OC[C@@H]1[C@@H](O)[C@H](O)[C@@H](O)CN1CCCCCCOc1cc(F)ccc1F	1.44 h

----------
target: CYP3A4 (Homo sapiens); assay: Inhibition of human CYP3A4 using testosterone as substrate at 10 uM; format: ADME; settings: probe testosterone

molecularString	quantityUnit	inhibition at 10 µM
CCCOc1cccc(CCCN2C[C@H](O)[C@@H](O)[C@H](O)[C@H]2CO)c1	%	0.7
OC[C@@H]1[C@@H](O)[C@H](O)[C@@H](O)CN1CCCCCCOc1cc(F)ccc1F	%	-1.9
OC[C@@H]1[C@@H](O)[C@H](O)[C@@H](O)CN1CCCCCCOc1cccc(F)c1	%	-2.3
CCC(O)(CC)CCCCCCN1C[C@H](O)[C@@H](O)[C@H](O)[C@H]1CO	%	20.5
COc1ccccc1OCCCCCCN1C[C@H](O)[C@@H](O)[C@H](O)[C@H]1CO	%	-2.4

----------
assay: Cytotoxicity against MDBK cells assessed as cell viability by MTT assay; assay type: cell-based, Bos taurus; conditions: cattle
# maps each entry to its CC50

compound	CC50
OC[C@@H]1[C@@H](O)[C@H](O)[C@@H](O)CN1CCCCCCOc1ccccc1	> 500 µM
CCCCC1CCC(OCCCCCCN2C[C@H](O)[C@@H](O)[C@H](O)[C@H]2CO)CC1 (some centres undefined)	190 µM
CCCCCCCCCN1C[C@H](O)[C@@H](O)[C@H](O)[C@H]1CO	350 µM
COc1ccccc1OCCCCCCN1C[C@H](O)[C@@H](O)[C@H](O)[C@H]1CO	> 500 µM
OC[C@@H]1[C@@H](O)[C@H](O)[C@@H](O)CN1CCCCCCOc1ccc(C(F)(F)F)cc1	> 500 µM
OC[C@@H]1[C@@H](O)[C@H](O)[C@@H](O)CN1CCCCCCOc1ccc(OC(F)(F)F)cc1	> 500 µM
OC[C@@H]1[C@@H](O)[C@H](O)[C@@H](O)CN1CCCCCCOc1cccc(F)c1	> 500 µM
OC[C@@H]1[C@@H](O)[C@H](O)[C@@H](O)CN1CCCc1ccccc1OC1CCCCC1	420 µM
COc1ccc(OCCCCCCN2C[C@H](O)[C@@H](O)[C@H](O)[C@H]2CO)cc1	> 500 µM

----------
# maps each entry to its inhibition at 10 µM
target: CYP3A4 (Homo sapiens, UniProt P08684); test: Inhibition of human CYP3A4 using midazolam as substrate at 10 uM; assay type: ADME; conditions: probe midazolam
Sequence (P08684 whole entry): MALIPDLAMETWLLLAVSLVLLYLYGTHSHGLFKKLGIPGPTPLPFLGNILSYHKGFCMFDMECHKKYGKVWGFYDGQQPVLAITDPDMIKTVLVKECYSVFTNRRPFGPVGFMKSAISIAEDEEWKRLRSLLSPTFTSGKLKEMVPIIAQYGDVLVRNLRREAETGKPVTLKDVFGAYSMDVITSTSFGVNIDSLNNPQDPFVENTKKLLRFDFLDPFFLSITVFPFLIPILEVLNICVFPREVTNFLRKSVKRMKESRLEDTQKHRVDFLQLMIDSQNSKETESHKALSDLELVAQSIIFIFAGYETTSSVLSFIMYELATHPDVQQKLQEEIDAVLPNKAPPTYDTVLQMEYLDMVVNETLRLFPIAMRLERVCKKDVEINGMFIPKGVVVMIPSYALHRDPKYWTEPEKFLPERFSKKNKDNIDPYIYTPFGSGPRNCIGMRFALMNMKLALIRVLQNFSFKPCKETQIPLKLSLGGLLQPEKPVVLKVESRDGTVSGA

molecularString	quantityUnit	inhibition at 10 µM
OC[C@@H]1[C@@H](O)[C@H](O)[C@@H](O)CN1CCCCCCOc1cccc(F)c1	%	-2.3
OC[C@@H]1[C@@H](O)[C@H](O)[C@@H](O)CN1CCCCCCOCc1ccccc1	%	6.6
Cc1cccc(OCCCCCCN2C[C@H](O)[C@@H](O)[C@H](O)[C@H]2CO)c1	%	28.7
OC[C@@H]1[C@@H](O)[C@H](O)[C@@H](O)CN1CCCCCCOc1cc(F)ccc1F	%	10.9
OC[C@@H]1[C@@H](O)[C@H](O)[C@@H](O)CN1CCCCCCOc1cccc(C(F)(F)F)c1	%	-18.5

----------
assay: Aqueous solubility in PBS at pH 4; format: physicochemical; conditions: buffer
# maps each entry to its solubility
reportedMetric: solubility (µM)

molecularString	reportedMetric	quantityUnit	endpointValue
OC[C@@H]1[C@@H](O)[C@H](O)[C@@H](O)CN1CCCCCCOc1cccc(F)c1	solubility	µM	271
COc1ccccc1OCCCCCCN1C[C@H](O)[C@@H](O)[C@H](O)[C@H]1CO	solubility	µM	286
OC[C@@H]1[C@@H](O)[C@H](O)[C@@H](O)CN1CCCCCCOc1cc(F)ccc1F	solubility	µM	296
CCCOc1cccc(CCCN2C[C@H](O)[C@@H](O)[C@H](O)[C@H]2CO)c1	solubility	µM	281
OC[C@@H]1[C@@H](O)[C@H](O)[C@@H](O)CN1CCCCCCOCc1ccccc1	solubility	µM	282
OC[C@@H]1[C@@H](O)[C@H](O)[C@@H](O)CN1CCCCCCOC1CCCCCC1	solubility	µM	286
Cc1cccc(OCCCCCCN2C[C@H](O)[C@@H](O)[C@H](O)[C@H]2CO)c1	solubility	µM	279
CCCC(CCC)OCCCCCCN1C[C@H](O)[C@@H](O)[C@H](O)[C@H]1CO	solubility	µM	290
CCC(O)(CC)CCCCCCN1C[C@H](O)[C@@H](O)[C@H](O)[C@H]1CO	solubility	µM	315
OC[C@@H]1[C@@H](O)[C@H](O)[C@@H](O)CN1CCCCCCOc1cccc(C(F)(F)F)c1	solubility	µM	281

----------
# maps each entry to its CC50
test: Cytotoxicity against MDBK cells assessed as cell viability by MTT assay; format: cell-based, Bos taurus; conditions: cattle
reportedMetric: CC50 (µM)

compound	reportedRelation	endpointValue
CCC(CC)OCCCCCCN1C[C@H](O)[C@@H](O)[C@H](O)[C@H]1CO	=	450
CCCC(CCC)OCCCCCCN1C[C@H](O)[C@@H](O)[C@H](O)[C@H]1CO	>	500
CC1CCC(OCCCCCCN2C[C@H](O)[C@@H](O)[C@H](O)[C@H]2CO)CC1C (stereo not given in full)	>	500
Cc1cccc(OCCCCCCN2C[C@H](O)[C@@H](O)[C@H](O)[C@H]2CO)c1	>	500
Cc1ccc(C(C)C)cc1OCCCCCCN1C[C@H](O)[C@@H](O)[C@H](O)[C@H]1CO	=	90

----------
experiment: in vivo; conditions: Sprague-Dawley, rat, po, 25 mg/kg

molecularString	quantityUnit	Tmax
OC[C@@H]1[C@@H](O)[C@H](O)[C@@H](O)CN1CCCCCCOc1cc(F)ccc1F	h	4.2

----------
test system: dengue virus type 2; test: Antiviral activity against 0.01 MOI DENV-2 NGC infected in BHK cells assessed as reduction in viral titer after 48 hrs; assay type: functional, organism-based
pEC50: −log10 of the molar value.

molecularString	targetSystem	pEC50
OC[C@@H]1[C@@H](O)[C@H](O)[C@@H](O)CN1CCCCCCOc1ccc(C(F)(F)F)cc1	dengue virus type 2	5.89
OC[C@@H]1[C@@H](O)[C@H](O)[C@@H](O)CN1CCC#CCCOc1cc(F)ccc1F	dengue virus type 2	4.70
OC[C@@H]1[C@@H](O)[C@H](O)[C@@H](O)CN1CC/C=C\CCOc1cc(F)ccc1F	dengue virus type 2	5.07
CCCOc1ccc(CCCN2C[C@H](O)[C@@H](O)[C@H](O)[C@H]2CO)cc1	dengue virus type 2	6.30
OC[C@@H]1[C@@H](O)[C@H](O)[C@@H](O)CN1CCCCCCOc1cc(F)ccc1F	dengue virus type 2	6.40

----------
assay: Plasma protein binding in human plasma; type: ADME, cell-free; conditions: read-out: PPB (converted)
For each record, check the reported fraction unbound: if it is below 0.2 write 1.0, else write 0.0.

molecularString	assignedCategory
CCC(O)(CC)CCCCCCN1C[C@H](O)[C@@H](O)[C@H](O)[C@H]1CO	0.0
OC[C@@H]1[C@@H](O)[C@H](O)[C@@H](O)CN1CCCCCCOc1cccc(F)c1	0.0
CCCC(CCC)OCCCCCCN1C[C@H](O)[C@@H](O)[C@H](O)[C@H]1CO	1.0
COc1ccccc1OCCCCCCN1C[C@H](O)[C@@H](O)[C@H](O)[C@H]1CO	0.0
OC[C@@H]1[C@@H](O)[C@H](O)[C@@H](O)CN1CCCCCCOc1cccc(C(F)(F)F)c1	1.0
CCCOc1cccc(CCCN2C[C@H](O)[C@@H](O)[C@H](O)[C@H]2CO)c1	0.0
OC[C@@H]1[C@@H](O)[C@H](O)[C@@H](O)CN1CCCCCCOCc1ccccc1	0.0
OC[C@@H]1[C@@H](O)[C@H](O)[C@@H](O)CN1CCCCCCOc1cc(F)ccc1F	0.0
OC[C@@H]1[C@@H](O)[C@H](O)[C@@H](O)CN1CCCCCCOC1CCCCCC1	0.0

----------
assay: Aqueous solubility in PBS at pH 7.4; format: physicochemical; conditions: buffer
# maps each entry to its solubility
reportedMetric: solubility

molecularString	reportedMetric	endpointValue
OC[C@@H]1[C@@H](O)[C@H](O)[C@@H](O)CN1CCCCCCOc1cccc(C(F)(F)F)c1	solubility	278 µM
CCCC(CCC)OCCCCCCN1C[C@H](O)[C@@H](O)[C@H](O)[C@H]1CO	solubility	302 µM
CCC(O)(CC)CCCCCCN1C[C@H](O)[C@@H](O)[C@H](O)[C@H]1CO	solubility	315 µM
OC[C@@H]1[C@@H](O)[C@H](O)[C@@H](O)CN1CCCCCCOCc1ccccc1	solubility	288 µM
CCCOc1cccc(CCCN2C[C@H](O)[C@@H](O)[C@H](O)[C@H]2CO)c1	solubility	288 µM
